Test system: Cord-Blood Derived Primary Human Mast Cells (CHMC)
protocol.description: FcϵRI-dependent activation of CHMC, activity of tryptase released upon degranulation
Type: cell-based
run.conditions: Mast cell
pEC50: −log10 of the molar value.
reported.metric: pEC50

The recorded pEC50 for entry COc1cc(Nc2ncc(F)c(Nc3ccc4c(n3)NC(=O)C(C)(C)O4)n2)cc(OC)c1OC equals ~7.37

###

protocol.description: Water solubility
Format: physicochemical
run.conditions: phosphate buffer, pH 7.5, aqueous buffer, phosphate buffer at pH=7.5; read-out: measured solubility
reported.metric: solubility

The recorded solubility for entry COc1cc(Nc2ncc(F)c(Nc3ccc4c(n3)NC(=O)C(C)(C)O4)n2)cc(OC)c1OC equals < 1 µg/mL

###

protocol.description: Water solubility
Type: physicochemical
run.conditions: aqueous buffer, aqueous buffer under physiological conditions; read-out: water solubility
Quick reference: solubility of the listed items.

>  <test.smiles>
COc1cc(Nc2ncc(F)c(Nc3ccc4c(n3)NC(=O)C(C)(C)O4)n2)cc(OC)c1OC

>  <result>
< 1 µg/mL

$$$$

Consider now this further molecule.
The recorded solubility for entry COc1cc(Nc2ncc(F)c(Nc3ccc4c(n3)N(COP(=O)(O)O)C(=O)C(C)(C)O4)n2)cc(OC)c1OC equals > 5000 µg/mL
